src = patent US9511058B2

# target desc: AMPK
# test details: AMPK activation, enzyme-linked immunosorbent assay
# Type: biochemical
# setup conditions: compounds of Table 4 (Table 9)
pEC50: −log10 of the molar value.
For each record, write down the corresponding pEC50.

Answered cases to consult:
compound	pEC50
O=C(N[C@H]1CCN(Cc2ccc(F)cc2)C1)c1ccc(C(=O)N2CCN(c3ccc(Cl)cc3)CC2)cn1 [4-4]	5.30 to 6.00
N#Cc1ccc(CN2CCC(NC(=O)c3ccc(C(=O)N4CCN(Cc5ccc(C(F)(F)F)cc5)CC4)cn3)CC2)cc1 [4-3]	> 6.30
O=C(N[C@H]1CCN(Cc2ccc(C(F)(F)F)cc2)C1)c1ccc(C(=O)N2CCN(c3ccc(Cl)cc3)CC2)cn1 [4-8]	5.30 to 6.00

For each listed entry, give its pEC50.
1. N#Cc1ccc(CN2CCC(NC(=O)c3ccc(C(=O)N4CCN(Cc5ccc(F)cc5)CC4)cn3)CC2)cc1 [4-2]
2. O=C(N[C@H]1CCN(Cc2ccc(Cl)cc2)C1)c1ccc(C(=O)N2CCN(c3ccc(Cl)cc3)CC2)cn1 [4-7]
3. N#Cc1ccc(CN2CC[C@H](NC(=O)c3ccc(C(=O)N4CCN(c5ccc(Cl)cc5)CC4)cn3)C2)cc1 [4-6]
4. N#Cc1ccc(CN2CCC(NC(=O)c3ccc(C(=O)N4CCN(Cc5ccc(C#N)cc5)CC4)cn3)CC2)cc1 [4-1]
5. O=C(N[C@H]1CCN(Cc2ccncc2)C1)c1ccc(C(=O)N2CCN(c3ccc(Cl)cc3)CC2)cn1 [4-5]

Return:
["> 6.30", "5.30 to 6.00", "6.00 to 6.30", "> 6.30", "5.30 to 6.00"]
